Reference for the values: ChEMBL document CHEMBL1201862

System: SK-MEL-28
Experiment: NCI tumour cell line growth inhibition, 48 h
Activity calls are given as the source filed them. Cut-off read from the data, not from the text of the source: active = GI50 up to about 1.1 µM and inactive = higher.
Measured GI50, listed per entry.

Below, 4 molecules whose answers are already recorded.
1) CC1CC[C@]2(C(=O)O)CCC3(C)C(=CC(=O)C4[C@@]5(C)CCC(=O)C(C)(C)C5CC[C@]43C)[C@@H]2[C@H]1C (stereo partly drawn) ... 18 µM (inactive)
2) Cc1ccc2nc(/C(=C/c3ccc(/C=C(\NC(=O)c4ccccc4)c4nc5ccc(C)cc5[nH]4)c(C)c3)NC(=O)c3ccccc3)[nH]c2c1 ... 25.2 µM (inactive)
3) CC(C)(C)c1cc(C2=NN(c3ccccc3)C(c3ccccc3)C2)cc(C(C)(C)C)c1O (stereo not drawn) ... > 100 µM (inactive)
4) O=C1C(Cl)N(c2ccc(Cl)cc2Cl)C1c1c[nH]c2ccccc12 (stereo not drawn) ... > 100 µM (inactive)

## Task Query: GI50; subject: `CCNc1cc2oc(=O)cc(C(F)(F)F)c2cc1C`
## Result > 100 µM (inactive)

## Task Query: GI50; subject: `Cc1ccc(Oc2cc(C)ccc2P(=O)(O)O)cc1`
## Result > 100 µM (inactive)
